- measurement-target: T1, mouse TfR ectodomain fused to a mouse IgG1 Fc fragment (mouse, UniProt Q62351 89-763)
- T1 construct: extracellular domain; not shown: mouse IgG1 Fc fragment
- T1 sequence (Q62351 89-763): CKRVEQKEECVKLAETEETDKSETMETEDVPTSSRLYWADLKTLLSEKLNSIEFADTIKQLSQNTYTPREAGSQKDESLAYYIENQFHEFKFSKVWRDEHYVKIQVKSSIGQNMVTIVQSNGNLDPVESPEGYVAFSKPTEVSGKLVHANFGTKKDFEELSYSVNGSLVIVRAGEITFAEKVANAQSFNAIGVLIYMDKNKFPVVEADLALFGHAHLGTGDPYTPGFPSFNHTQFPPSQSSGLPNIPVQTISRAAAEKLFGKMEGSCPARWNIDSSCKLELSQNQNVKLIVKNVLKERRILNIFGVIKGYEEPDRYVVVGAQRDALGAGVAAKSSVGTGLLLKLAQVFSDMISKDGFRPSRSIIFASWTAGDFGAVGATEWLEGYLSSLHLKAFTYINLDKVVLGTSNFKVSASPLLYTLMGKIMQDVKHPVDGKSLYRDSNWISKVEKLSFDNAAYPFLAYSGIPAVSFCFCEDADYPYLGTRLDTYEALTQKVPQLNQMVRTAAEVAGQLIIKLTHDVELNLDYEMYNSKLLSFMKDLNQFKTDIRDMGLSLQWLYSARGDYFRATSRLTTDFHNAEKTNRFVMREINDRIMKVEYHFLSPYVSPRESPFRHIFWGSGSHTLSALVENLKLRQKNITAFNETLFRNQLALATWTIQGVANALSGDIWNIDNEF
- measurement-description: SPR, at equilibrium
pKd: −log10 of the molar value.

| binder | pKd |
| --- | --- |
| VHH A (C5) (VHH, form with the C-terminal myc-His6 tag (x = 1), since the VHHs were detected with anti-6His or anti-cMyc; the same holds for m12 to m126) VHH: EVQLVESGGGVVQPGGSLKLSCVASGTDFSINFIRWYRQAPGKQREFVAGFTATGNTNYADSMKGRFTISRDNTKNAVYLQIDSLKPEDTAVYYCYMLDKWGQGTQVTVSS | 7.05 |
| C5^h18 (VHH) VHH: EVQLVESGGGVVQPGGSLKLSCVASGTDFSINFIRWYRQAPGKGLEFVAGFTATGNTNYADSVKGRFTISRDNAKNTLYLQMNSLRPEDTAVYYCYMLDKWGQGTQVTVSS | 6.52 |
